Tested on: Vero (African green monkey kidney) cells
Assay: MTT reduction assay, Vero normal cells
Assay type: cell-based
Conditions: Chlorocebus sabaeus, Vero; MTT, 72 h incubation, normal cells; read-out: Vero IC50
Experimental: Fetal bovine serum (FBS), phosphate-buffered saline (PBS), RPMI-1640, and trypsin were obtained from Biosera (Ringmer, UK). […] MTT reduction assay was employed to assess the viability of cancer cells after being treated with synthesized derivatives as previously described ([34]). […] The optical absorbance of the final solution was determined at 570 nm using a Bio-Tek multimode plate reader (Synergy HTX). […]
observed_property: pIC50
// pIC50 here means minus log10 of the molar concentration (mol/L)

Q: Which pIC50 value belongs to COc1cccc2c1C(=O)c1c(O)c3c(c(O)c1C2=O)C[C@@](O)(C(=O)CO)C[C@@H]3O[C@H]1C[C@H](N)[C@H](O)[C@H](C)O1 [Doxorubicin, reference compound] ?
Result: 6.03

Sourced from paper PMC8653689
